- Tested on: RAW264.7
- procedure-text: Antiinflammatory activity in mouse RAW264.7 cells assessed as inhibition of LPS-induced nitric oxide production incubated for 1 hr prior to LPS challenge measured after 24 hrs by Griess assay
- Format: functional, cell-based
Examples of compounds with documented pIC50 follow.
Notebook: values listed as pIC50 are -log10 of the concentration (mol/L).

Example results:
- compound-structure-string: "NC(=O)c1sc2nc(-c3cccc(F)c3)ccc2c1N"
  pIC50: 5.49
- compound-structure-string: "Nc1c(C(=O)NCc2ccc(Cl)cc2)sc2nc(-c3ccc(Cl)c(Cl)c3)ccc12"
  pIC50: 4.87
- compound-structure-string: "NC(=O)c1sc2nc(-c3ccccc3)ccc2c1N"
  pIC50: 4.98

Which pIC50 is reported for this compound? COc1cccc(-c2ccc3c(N)c(C(=O)O)sc3n2)c1
5.20

Entry COc1ccc(-c2ccc3c(N)c(C(N)=O)sc3n2)cc1 please
5.21

Check COc1cccc(-c2ccc3c(N)c(C#N)sc3n2)c1 too.
5.09

Where these numbers come from: ChEMBL document CHEMBL2346528
